FYI, the data here is from patent US20240043427A1.

Biological target: UniProt P21589
Type: biochemical
Conditions: 1 mM NaH2PO4 in enzyme buffer, CD73 0.3 nM, AMP 15 uM
pIC50: −log10 of the molar value.
endpoint.name: pIC50

In [3]: df
Out[3]:
                                   molecule    assay_system  endpoint_name  test_result
0  CC1(C(F)(F)F)CCN(c2cc(-c3c[nH]c(=O)[nH]c3=O)nn3ccnc23)C1 (stereo not shown)  UniProt P21589          pIC50         7.87
1  O=c1[nH]cc(-c2cc(N3C[C@@H](Oc4ccccn4)C(F)(F)C3)c3nccn3n2)c(=O)[nH]1  UniProt P21589          pIC50         7.94
2  O=c1[nH]cc(-c2cc(N3CC[C@@H](OC(F)(F)F)C3)c3nccn3n2)c(=O)[nH]1  UniProt P21589          pIC50         8.56
3  O=C(c1ccc([C@H]2C[C@@H]2c2cc(-c3c[nH]c(=O)[nH]c3=O)nn3ccnc23)cc1)N1C[C@@H](F)[C@H](F)C1 (racemic)  UniProt P21589          pIC50         8.11
4  O=c1[nH]cc(-c2cc([C@H]3C[C@@H]3c3ccc(OCC(F)(F)F)cn3)c3nccn3n2)c(=O)[nH]1 (racemic)  UniProt P21589          pIC50         8.70
5  C[C@@H]1CN(c2cc(-c3c[nH]c(=O)[nH]c3=O)nn3ccnc23)C[C@H]1C(F)(F)F  UniProt P21589          pIC50         6.82
6  CC1CN(C(=O)c2cccc([C@H]3C[C@@H]3c3cc(-c4c[nH]c(=O)[nH]c4=O)nn4ccnc34)c2)C1 (racemic)  UniProt P21589          pIC50         8.72

---

Target: CD73 (Homo sapiens (Human))
Assay: MDA-MB-231 Cell Based CD73 Activity Assay (DMEM)
Conditions: MDA-MB-231-GFP cells, DMEM medium with 10% human plasma, 200 uM AMP
API: label(entry) gives rule met if the entry's EC50 is strictly smaller than 50 nM; on equality or larger values it gives rule not met.

                                   molecule   class_label
0  CC(=O)NC1CN(c2cc(-c3c[nH]c(=O)[nH]c3=O)nn3ccnc23)CC1(F)F (stereo not shown)      rule met
1  O=c1[nH]cc(-c2cc([C@H]3C[C@@H]3c3ncc4cnn(CC(F)(F)F)c4c3F)c3nccn3n2)c(=O)[nH]1 (racemic)      rule met
2  O=c1[nH]cc(-c2cc(N3CC(c4ccc(OC(F)(F)F)cc4)C3)c3nccn3n2)c(=O)[nH]1  rule not met
3  O=c1[nH]cc(-c2cc([C@H]3C[C@@H]3c3ccc4nc5n(c4c3)C(C(F)(F)F)CC5)c3nccn3n2)c(=O)[nH]1 (mixture of isomers)      rule met
4  O=C(c1ccc(C2CN(c3cc(-c4c[nH]c(=O)[nH]c4=O)nn4ccnc34)C2)cc1)N1CC(F)(F)C1  rule not met
5  O=c1[nH]cc(-c2cc([C@H]3C[C@@H]3c3cnc4c(C(F)(F)F)cccc4c3)c3nccn3n2)c(=O)[nH]1      rule met

---

Target: CD73 (Homo sapiens (Human), UniProt P21589)
Sequence (P21589 27-574): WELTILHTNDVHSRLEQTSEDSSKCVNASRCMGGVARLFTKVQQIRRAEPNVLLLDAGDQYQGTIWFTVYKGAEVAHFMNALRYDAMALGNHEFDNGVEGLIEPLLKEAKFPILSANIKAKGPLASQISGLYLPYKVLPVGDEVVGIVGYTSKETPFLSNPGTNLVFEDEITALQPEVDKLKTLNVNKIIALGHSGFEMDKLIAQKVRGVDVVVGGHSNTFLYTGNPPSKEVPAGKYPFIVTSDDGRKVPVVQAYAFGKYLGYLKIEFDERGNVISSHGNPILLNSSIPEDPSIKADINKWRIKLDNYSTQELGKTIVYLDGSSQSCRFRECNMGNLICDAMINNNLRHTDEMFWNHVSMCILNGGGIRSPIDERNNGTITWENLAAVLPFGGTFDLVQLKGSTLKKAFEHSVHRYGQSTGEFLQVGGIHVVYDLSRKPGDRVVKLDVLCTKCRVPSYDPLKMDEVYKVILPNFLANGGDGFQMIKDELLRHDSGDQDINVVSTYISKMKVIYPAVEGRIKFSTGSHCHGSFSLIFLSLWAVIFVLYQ
Format: biochemical
Settings: 1 mM NaH2PO4 in enzyme buffer, CD73 0.3 nM, AMP 15 uM
API: label(entry) gives 1 (yes) if the entry's IC50 is strictly smaller than 5 nM; on equality or larger values it gives 0 (no).

In [3]: df
Out[3]:
                                   compound  class_label
0  O=C1N(CCC(F)(F)F)c2cc([C@H]3C[C@@H]3c3cc(-c4c[nH]c(=O)[nH]c4=O)nn4ccnc34)ccc2C12CC2 (racemic)      1 (yes)
1  N#Cc1cc(F)c([C@H]2C[C@@H]2c2cc(-c3c[nH]c(=O)[nH]c3=O)nn3c(F)cnc23)cc1F      1 (yes)
2  O=c1[nH]cc(-c2cc(N3CCC4(CCOC4)C3)c3nccn3n2)c(=O)[nH]1 (stereo not drawn)       0 (no)
3  CC1(C)C(=O)N(CC(F)(F)F)c2cc([C@H]3C[C@@H]3c3cc(-c4c[nH]c(=O)[nH]c4=O)nn4ccnc34)ccc21      1 (yes)
4  O=C1N(CC(F)(F)F)c2cc([C@H]3C[C@@H]3c3cc(-c4c[nH]c(=O)[nH]c4=O)nn4c(F)cnc34)ccc2C12CCC2      1 (yes)

---

Target: CD73 (Homo sapiens (Human))
Type: biochemical
Conditions: 1 mM NaH2PO4 in enzyme buffer, CD73 0.3 nM, AMP 15 uM
pIC50: −log10 of the molar value.
Class label 1: pIC50 at least 9. Class label 0: pIC50 below 9.

                                    compound  class_label
 0  O=c1[nH]cc(-c2cc([C@H]3C[C@@H]3c3ccc4cnn(CC(F)(F)F)c4c3)n3ncc(F)c3n2)c(=O)[nH]1 [Example 716]      label 1
 1  O=c1[nH]cc(-c2cc(N3CCC(Cn4ccnn4)C3)c3nccn3n2)c(=O)[nH]1 (stereo not drawn) [Example 592]      label 0
 2  O=c1[nH]cc(-c2cc([C@H]3C[C@@H]3c3ccc(OC(F)(F)F)cc3F)c3nccn3n2)c(=O)[nH]1 (racemic) [Example 280]      label 0
 3  O=c1[nH]cc(-c2cc(N3CCC4(COC4)C3)c3nccn3n2)c(=O)[nH]1 [Example 653]      label 0
 4  O=c1[nH]cc(-c2cc([C@H]3C[C@@H]3c3ccc(Cl)nc3)c3nccn3n2)c(=O)[nH]1 (racemic) [Example 568]      label 0
 5  O=c1[nH]cc(-c2cc(NCCc3ccccc3)c3nccn3n2)c(=O)[nH]1 [Example 487]      label 0
 6  O=C(Nc1ccc(F)cc1F)OCC(F)(F)COc1cc(-c2c[nH]c(=O)[nH]c2=O)nn2ccnc12 [Example 238]      label 1
 7  O=c1[nH]cc(-c2cc([C@H]3C[C@@H]3c3ccc4ccn(CC(F)(F)F)c(=O)c4c3)c3nccn3n2)c(=O)[nH]1 [Example 707]      label 0
 8  CC1CN(c2cc(-c3c[nH]c(=O)[nH]c3=O)nc3ccnn23)CC1(F)F (stereo not drawn) [Example 221]      label 0
 9  O=c1[nH]cc(-c2cc(N3CCC4CCC3C4)c3nccn3n2)c(=O)[nH]1 (stereo not drawn) [Example 651]      label 0
10  O=c1[nH]cc(-c2cc(NCC(F)(F)F)c3nccn3n2)c(=O)[nH]1 [Example 672]      label 0
11  O=c1[nH]cc(-c2cc(N3CC4CC4C3)c3nccn3n2)c(=O)[nH]1 (stereo not drawn) [Example 225]      label 0
12  CC1CCN(c2cc(-c3c[nH]c(=O)[nH]c3=O)nn3ccnc23)CCC1(F)F (stereo not drawn) [Example 484]      label 0

---

Target: UniProt P21589
Assay type: biochemical
Conditions: 1 mM NaH2PO4 in enzyme buffer, CD73 0.3 nM, AMP 15 uM
Each entry below lists one item and its recorded IC50 value.
endpoint.name: IC50 (nM)

                                    molecule  endpoint_name  quantity_unit  test_result
 0  O=c1[nH]cc(-c2cc([C@H]3C[C@@H]3c3cncnc3)c3ncc(F)n3n2)c(=O)[nH]1 (racemic) [Example 179]           IC50             nM         16.7
 1  O=c1[nH]cc(-c2cc([C@H]3C[C@@H]3c3ccncc3F)c3nccn3n2)c(=O)[nH]1 (racemic) [Example 161]           IC50             nM         4.48
 2  N#Cc1cc(F)cc([C@H]2C[C@@H]2c2cc(-c3c[nH]c(=O)[nH]c3=O)nn3ccnc23)c1 (racemic) [Example 85]           IC50             nM         1.34
 3  O=C(Nc1c(F)cc(F)cc1F)O[C@H]1CN(c2cc(-c3c[nH]c(=O)[nH]c3=O)nn3ccnc23)CC1(F)F [Example 239]           IC50             nM         0.86
 4  O=c1[nH]cc(-c2cc([C@H]3C[C@@H]3c3cc(F)c4cnn(CC(F)(F)F)c4c3)c3ncc(F)n3n2)c(=O)[nH]1 [Example 618]           IC50             nM         0.34
 5  N#Cc1ccc([C@H]2C[C@@H]2c2cc(-c3c[nH]c(=O)[nH]c3=O)nn3c(F)cnc23)nc1 (racemic) [Example 151]           IC50             nM         1.36
 6  O=c1[nH]cc(-c2cc([C@H]3C[C@@H]3c3cnc4cnn(CC(F)(F)F)c4c3)c3ncc(F)n3n2)c(=O)[nH]1 (racemic) [Example 619]           IC50             nM         0.95
 7  CC(=O)N1CC2(C1)CN(c1cc(-c3c[nH]c(=O)[nH]c3=O)nn3ccnc13)CC2(F)F [Example 503]           IC50             nM         5.22
 8  O=c1[nH]cc(-c2cc([C@@H]3C[C@H]3c3ccc4cnn(CC(F)F)c4c3)c3nccn3n2)c(=O)[nH]1 [Example 124]           IC50             nM          2.6
 9  O=c1[nH]cc(-c2cc([C@H]3C[C@@H]3c3ccc4c(C(F)(F)F)nn(CC(F)(F)F)c4c3)c3ncc(F)n3n2)c(=O)[nH]1 [Example 329]           IC50             nM         0.64
10  O=c1[nH]cc(-c2cc([C@H]3C[C@@H]3c3ccc4ncn(CC(F)(F)F)c4c3)c3nccn3n2)c(=O)[nH]1 [Example 322]           IC50             nM          0.8
11  O=c1[nH]cc(-c2cc(NCC(F)(F)c3ccccc3)c3nccn3n2)c(=O)[nH]1 [Example 498]           IC50             nM         50.7
12  O=c1[nH]cc(-c2cc([C@H]3C[C@@H]3c3cnc4c(F)nn(CC(F)(F)F)c4c3)c3nccn3n2)c(=O)[nH]1 [Example 717]           IC50             nM         0.69
13  N#Cc1cc(F)c([C@H]2C[C@@H]2c2cc(-c3c[nH]c(=O)[nH]c3=O)nn3ncnc23)c(F)c1 [Example 428]           IC50             nM         1.38
